# test_description: Cytotoxicity in mammalian cells (Cell Titer Glo)
# Assay type: cell-based
# condition_notes: African green monkey; Vero cells, Conc. 10 µM
quantity_measured: viability at 24 h, 10 µM (%)

[[record]]
molecule = "C#CCN(Cc1nc(-c2ccccc2)oc1C)[C@@H]1C[C@@H]2C[C@H]([C@H]1C)C2(C)C [Compound 6]"
quantity_measured = "viability at 24 h, 10 µM"
value_observed = 91.1

[[record]]
molecule = "C[C@@H]1[C@H]2C[C@@H](C[C@H]1NCc1nc3ccccc3n1C1CCCCCC1)C2(C)C [Compound 8]"
quantity_measured = "viability at 24 h, 10 µM"
value_observed = 88.6

[[record]]
molecule = "CCc1ccccc1-c1nc(CN[C@@H]2C[C@@H]3C[C@H]([C@H]2C)C3(C)C)c(C)o1 [Compound 2]"
quantity_measured = "viability at 24 h, 10 µM"
value_observed = 98.9

[[record]]
molecule = "Cc1oc(-c2ccc3c(c2)OCO3)nc1CN[C@@H]1C[C@@H]2C[C@H]([C@H]1C)C2(C)C [Compound 1]"
quantity_measured = "viability at 24 h, 10 µM"
value_observed = 94.6

[[record]]
molecule = "Cc1oc(C2CCCCC2)nc1C(=O)N[C@@H]1C[C@@H]2C[C@H]([C@H]1C)C2(C)C [Compound 7]"
quantity_measured = "viability at 24 h, 10 µM"
value_observed = 91.8


====

# test_target: BmTrxR (Brugia malayi)
# Sequence (A0A1I9G0T9 entry or part of it, added parts left off): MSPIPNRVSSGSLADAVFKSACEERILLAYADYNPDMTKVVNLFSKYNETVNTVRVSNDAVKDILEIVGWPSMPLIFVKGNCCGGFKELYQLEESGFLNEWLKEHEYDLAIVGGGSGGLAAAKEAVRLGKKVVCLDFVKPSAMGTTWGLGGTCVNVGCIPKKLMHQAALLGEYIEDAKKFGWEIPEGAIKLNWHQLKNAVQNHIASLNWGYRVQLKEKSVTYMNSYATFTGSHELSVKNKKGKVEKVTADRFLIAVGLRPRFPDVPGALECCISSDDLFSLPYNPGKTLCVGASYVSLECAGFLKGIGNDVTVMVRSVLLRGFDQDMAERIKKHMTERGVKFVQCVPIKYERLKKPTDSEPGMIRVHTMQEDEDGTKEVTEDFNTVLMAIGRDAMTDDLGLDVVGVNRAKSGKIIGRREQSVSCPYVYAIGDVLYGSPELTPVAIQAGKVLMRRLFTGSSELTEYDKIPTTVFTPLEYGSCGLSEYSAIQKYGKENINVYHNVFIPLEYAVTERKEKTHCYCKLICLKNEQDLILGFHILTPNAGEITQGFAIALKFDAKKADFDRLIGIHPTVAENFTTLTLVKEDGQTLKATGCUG
# test_description: B. malayi TrxR enzyme inhibition
# Type: biochemical
pIC50: −log10 of the molar value.
In this section we review reported pIC50 values for a set of molecules.
quantity_measured: pIC50

[[record]]
molecule = "CC1C(NCc2cn(C3OCC(O)C(O)C3O)c3ccccc23)CC2CC1C2(C)C (centres unmarked)"
value_observed = 4.86

[[record]]
molecule = "Cc1oc(-c2ccc3c(c2)OCO3)nc1CN[C@@H]1C[C@@H]2C[C@H]([C@H]1C)C2(C)C"
value_observed = 4.43


====

In this section we review reported inhibition at 30 µM values for a set of molecules.
# test_target: S. mansoni TGR (Schistosoma mansoni, UniProt Q962Y6)
# Construct: made in house
# Sequence (Q962Y6 1-598): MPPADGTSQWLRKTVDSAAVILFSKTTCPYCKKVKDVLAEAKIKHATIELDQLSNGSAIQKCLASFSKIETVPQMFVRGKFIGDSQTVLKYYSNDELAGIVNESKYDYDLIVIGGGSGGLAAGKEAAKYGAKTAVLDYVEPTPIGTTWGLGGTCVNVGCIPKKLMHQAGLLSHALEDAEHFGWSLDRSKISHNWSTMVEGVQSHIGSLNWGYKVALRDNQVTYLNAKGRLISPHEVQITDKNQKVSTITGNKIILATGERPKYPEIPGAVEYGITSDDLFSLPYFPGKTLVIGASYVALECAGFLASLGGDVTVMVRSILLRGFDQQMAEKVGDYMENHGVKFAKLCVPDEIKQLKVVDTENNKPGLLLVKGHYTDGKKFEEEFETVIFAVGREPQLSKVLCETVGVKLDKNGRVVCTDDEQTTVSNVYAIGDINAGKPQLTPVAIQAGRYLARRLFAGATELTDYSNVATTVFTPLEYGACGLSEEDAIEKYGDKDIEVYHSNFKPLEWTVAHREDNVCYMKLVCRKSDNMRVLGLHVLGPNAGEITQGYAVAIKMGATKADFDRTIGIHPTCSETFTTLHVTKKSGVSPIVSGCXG
# test_description: S. mansoni TGR enzyme inhibition (DTNB reduction)
# Assay type: biochemical
# condition_notes: TGR, 15 minutes pre-incubation, compound 30 µM; read-out: % inhibition
quantity_measured: inhibition at 30 µM

[[record]]
molecule = "CCc1ccccc1-c1nc(CN[C@@H]2C[C@@H]3C[C@H]([C@H]2C)C3(C)C)c(C)o1"
quantity_measured = "inhibition at 30 µM"
value_observed = "8.85%"

[[record]]
molecule = "C[C@@H]1[C@H]2C[C@@H](C[C@H]1NCc1nc3ccccc3n1C1CCCCCC1)C2(C)C"
quantity_measured = "inhibition at 30 µM"
value_observed = "62.9%"

[[record]]
molecule = "Cc1oc(C2CCCCC2)nc1C(=O)N[C@@H]1C[C@@H]2C[C@H]([C@H]1C)C2(C)C"
quantity_measured = "inhibition at 30 µM"
value_observed = "88.1%"

[[record]]
molecule = "Cc1oc(-c2ccc3c(c2)OCO3)nc1CN[C@@H]1C[C@@H]2C[C@H]([C@H]1C)C2(C)C"
quantity_measured = "inhibition at 30 µM"
value_observed = "10%"

[[record]]
molecule = "CC1C(NCc2cn(C3OCC(O)C(O)C3O)c3ccccc23)CC2CC1C2(C)C (stereo not drawn)"
quantity_measured = "inhibition at 30 µM"
value_observed = "49.3%"

[[record]]
molecule = "C#CCN(Cc1nc(-c2ccccc2)oc1C)[C@@H]1C[C@@H]2C[C@H]([C@H]1C)C2(C)C"
quantity_measured = "inhibition at 30 µM"
value_observed = "95.8%"

